In this section, each of the variants is paired with its reported yeast fitness.
B1: tRNA (parent)
chain: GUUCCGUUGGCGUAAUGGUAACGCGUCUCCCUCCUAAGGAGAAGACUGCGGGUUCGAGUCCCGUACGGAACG

Variants of: B1
Experiment: yeast fitness relative to wild type (ratio to wild type); higher = fitter; tRNA-Arg(CCU), competitive growth, 37 C, YPD
Variants at the floor of the assay were thinned out.

- Input sequence: "GUUCCGUUGGCGUAAUAGUAAUGCGUCCCCCUCCUAAGGAGAAGACUGCGGGUGCGCGUCCUGUACGGAACG [G17A C22U U28C U54G A57C C62U]"
  Comparison sign: "="
  yeast fitness: 0.535
- Input sequence: "GUUCCGUUGGCGUAAUGGCAACGCGUCUCCAUCCUAAGGAGAAGACUGCUGGUUCGAGUCCGGUACGGAACG [U19C C31A G50U C62G]"
  Comparison sign: "≤"
  yeast fitness: 0.5
- Input sequence: "GUUCCGUUGGCGUAAUGGUAACGCGUCUCCCUCCUAAGGAGAGGACUGCGGGUUCGAGUCACGUACAGAACG [A43G C61A G67A]"
  Comparison sign: "≤"
  yeast fitness: 0.5
- Input sequence: "GUUCCGUUGGCGUAAUGGUAACGUGUUUCCCUCCUAAGGAGAAGACUGCGGGGUCGAGUACCGUACGGAGCG [C24U C27U U53G C60A A70G]"
  Comparison sign: "≤"
  yeast fitness: 0.5
- Input sequence: "GUUCCUUUGGCGUAAUGGUAACGCGUCUCCCUCCUAAGGGGAAGACUGCGGGUUCGAGUCACGCACGGAACG [G6U A40G C61A U64C]"
  Comparison sign: "≤"
  yeast fitness: 0.5
- Input sequence: "GAUCCGUUGGGGUAAUGGUAGCGCGUCUCCCUCCUAAGGAGAAGACUGCGGGUUCGAGUCCCGUUCGGAACG [U2A C11G A21G A65U]"
  Comparison sign: "≤"
  yeast fitness: 0.5
- Input sequence: "GUUCCGUUGGGGUAAUGCUAACGCGUAUCCCUCCUAAGGAGAAGACUGCGGGUUCGAGUCCCGUAUGGAACG [C11G G18C C27A C66U]"
  Comparison sign: "="
  yeast fitness: 0.636
- Input sequence: "GUUCCGUUGGAGUAAUGGUAACGCGUCUCCCUCCUAAGGAGAAGACUGAGGGUUCGAGUCCCGUAUGGAACG [C11A C49A C66U]"
  Comparison sign: "≤"
  yeast fitness: 0.5
- Input sequence: "GUUCUGUUGGUGUAAUGGUAACGCGUCUUGCUCCUAAGGAGAAGACUGCGGGUUCGAGUCCCGUACGGACCG [C5U C11U C29U C30G A70C]"
  Comparison sign: "≤"
  yeast fitness: 0.5
- Input sequence: "GUUCCGUUGGCCUAAUGGUAACGCGUCUCCCUCCUAAGGAGAAGACUGCGGGUUCGAGUCCCGUACCGAACG [G12C G67C]"
  Comparison sign: "="
  yeast fitness: 0.825
- Input sequence: "GUUCCGUUGGGGUGAUGGUAUCGCGUCUCCCUCCUGAGGAGAAGACUGCGGGUUCGAGUCCCGUACGGAACG [C11G A14G A21U A36G]"
  Comparison sign: "≤"
  yeast fitness: 0.5
- Input sequence: "GUUCCGUUGGUGUUAUGGUAACGCGUUUCCCUCCUAAGGGGAAGACUGCGGGUUCGAGUCCCGUACGGAACG [C11U A14U C27U A40G]"
  Comparison sign: "≤"
  yeast fitness: 0.5
- Input sequence: "GUUCCGUUGGCCUAAUGGUAAUGCGUCUCCCUCCUAAGGAGACGACUGCGGGUUCGAGUCCCGUACGGAACG [G12C C22U A43C]"
  Comparison sign: "="
  yeast fitness: 0.615
- Input sequence: "GUUCCGUUGGCGUGAUGGUAACGGGUCUCCCUCCUAAGGAGAAGACUGCGGGUUCGAGUCCCGUACGGAACG [A14G C24G]"
  Comparison sign: "="
  yeast fitness: 0.597
- Input sequence: "GUUUCGUUGGCGUAAUGGUUACGCGUCUCCCUCCUAAGGAGAAGACGGCGGGUUCGAAUCCAGUACGGAACG [C4U A20U U47G G58A C62A]"
  Comparison sign: "≤"
  yeast fitness: 0.5
- Input sequence: "GUUCAGUUGGCGUAAUCGUAACGCGUCUCCCUCCUAAGGAGAUGACUGCGGGUUCGAGACCCGUACGGAACG [C5A G17C A43U U59A]"
  Comparison sign: "="
  yeast fitness: 0.609
- Input sequence: "GUUCCGUUGGCGUAAUGGUUACACGUCUCCCUCCUAAGGAGAAGACUGCGGGUUCGAGUCCCGUAUGGAACG [A20U G23A C66U]"
  Comparison sign: "="
  yeast fitness: 0.55
- Input sequence: "GUUCCGUUGGCGUAAAGGUAACGCGUCUCGCUCCUAAGGAGAAGACUGCGGGUUCGUGUCCCGUACGGAACG [U16A C30G A57U]"
  Comparison sign: "≤"
  yeast fitness: 0.5
- Input sequence: "GUUCCAUUGGCGUAAUGGUAACGCGUCUCCCUGCUAAGGAGAAGACAGCGGGUUCGAGUCCCGGACGGAACG [G6A C33G U47A U64G]"
  Comparison sign: "="
  yeast fitness: 0.558
- Input sequence: "GUUCCGUUGGCGUAAUGGUAACGCGUCUCCCUCCUAAGGGGAAGACUGCGGAUUCUAGUCCCGUACGGAACG [A40G G52A G56U]"
  Comparison sign: "≤"
  yeast fitness: 0.5
- Input sequence: "GUUCCGUUGGCGUAAUGGUAAGGCGUCUCCCUCCUAAGGAGCAGACUGCGGGUUCGAGUCCCGUAGUGAACG [C22G A42C C66G G67U]"
  Comparison sign: "≤"
  yeast fitness: 0.5
- Input sequence: "GUUCCGUUGGGGGAAUGGUAACGCGUCUCCCUGCUAAGGAAAAGACUGCGGGUUCGAGUCCCAUACGGCACG [C11G U13G C33G G41A G63A A69C]"
  Comparison sign: "≤"
  yeast fitness: 0.5
- Input sequence: "GUUCCGUUGGUGUAAUGGUAACGCGUCUCCCUCCUAAGAUGAAGACUGCGGGUUCGAGUCCCGUACGGAACG [C11U G39A A40U]"
  Comparison sign: "="
  yeast fitness: 0.673
- Input sequence: "GUUCCGUUGGCGUAAUGGUAACGCGUCUCCCUCCAUAGAAGAAGACUGCGGGUUCGAGUCCCGUACGGAACG [U35A A36U G39A]"
  Comparison sign: "="
  yeast fitness: 0.567
- Input sequence: "GUUCCGUUGGUGUAAUGGUAACGCGUCUCCCUCCUAAGGAGAAGACUGGGGGUUCGGGUCCCGUACGGAACG [C11U C49G A57G]"
  Comparison sign: "≤"
  yeast fitness: 0.5
- Input sequence: "GUUCCGUUGGCAUAAUGGUAACGCAUUUCCCUCCUAAGGAGAAGACUGCGGGUUCGAGUCCCGUACGGAACG [G12A G25A C27U]"
  Comparison sign: "="
  yeast fitness: 0.596
- Input sequence: "GUUCCGUUGGCGUAAUGGUAACGCGUCUCCCUCCUUAGGAGAAGACUGCGGCUUCGAGUCCCGUACGGAACG [A36U G52C]"
  Comparison sign: "="
  yeast fitness: 0.53
- Input sequence: "GUUCCGUUGGCGAAAUGGUAACGAGUCUCCCUCCUAAGGAGAAGUCUGCAGGUUCAAGUCCCGUACGGAACG [U13A C24A A45U G50A G56A]"
  Comparison sign: "≤"
  yeast fitness: 0.5
- Input sequence: "GUUCCGUUGACGUAAUGGUAACGCGUCUCCCUCCGAAGGAGAGGAUUGCGGGUUCGAGUCCCGUACGGAACG [G10A U35G A43G C46U]"
  Comparison sign: "="
  yeast fitness: 0.587
- Input sequence: "GUUACGUUGGCGUAAUGGUAACGCGUCUCCCUCUUAAGGAGAAGACUGCGGGUUCGAGUCCCGUACGGAACG [C4A C34U]"
  Comparison sign: "="
  yeast fitness: 0.666
- Input sequence: "GUUCCGUUGGGGUAAUGGUAACCCGUCUCCCUCCUGGGGAGAAGACUGCGGGUUCGAGUCCCGUACGGAACG [C11G G23C A36G A37G]"
  Comparison sign: "="
  yeast fitness: 0.774
- Input sequence: "GUUACGUUGGCGUAAUGGUAACGCGUCUCCUUCCUAAGGAGAAGAAUGCGGGUUCGAGUCCCGUACGGAACG [C4A C31U C46A]"
  Comparison sign: "="
  yeast fitness: 0.726
- Input sequence: "GCUCCGUGGGCGUAAUGGUAACAGGUCUCCCUCCUAAGGAGAAAACUGCGGGUUCGAGUCCCGUACGGAACG [U2C U8G G23A C24G G44A]"
  Comparison sign: "≤"
  yeast fitness: 0.5
- Input sequence: "GUUCCGUUGGCGAAAUGGUAACCCGUCUCCCGCCUAAGGAGAAGACUGCGGGUUCGACUCACGUUCGGAACG [U13A G23C U32G G58C C61A A65U]"
  Comparison sign: "≤"
  yeast fitness: 0.5
- Input sequence: "GUUCCGUUGGCGUAAUAGUAACGCGUCUCCCUCCUAAGGAAAAGACUGCGGGUUCGAGUCCCGUACGGAACG [G17A G41A]"
  Comparison sign: "="
  yeast fitness: 0.665
- Input sequence: "GUUCAGUUGGCGUAAUCGUAACGCAUCUCCCUCCUAAGGAGAAGACUGCGGGUUCGAGCCCCGUACGGAACG [C5A G17C G25A U59C]"
  Comparison sign: "≤"
  yeast fitness: 0.5
- Input sequence: "GUUCCGUUGGCGUAAUGGUAACGCGUCUCCCUCCUAAGGACAAGACUGCGGGUUCGAGUCGCGUCCGGAACG [G41C C61G A65C]"
  Comparison sign: "≤"
  yeast fitness: 0.5
- Input sequence: "GUUCCGUUGGCGUAAUCGUACCGCGUCCCCCUCCUAAGGAGAAGACUGCGGGUUCGAGUACCGUGCGGAACG [G17C A21C U28C C60A A65G]"
  Comparison sign: "≤"
  yeast fitness: 0.5
- Input sequence: "GUGCCGUUGGCGUAAUCGUAACGCGUCUCCAUCCCAAGGAGAAGUCUGCGGGUUCGAGUCCCGUACGGAACG [U3G G17C C31A U35C A45U]"
  Comparison sign: "≤"
  yeast fitness: 0.5
- Input sequence: "GUUCCAUUGGCGUAAUGGUAACGCGUCUCCCUUCUAAGGAGAAGACUGCAGCUUCGAGUCCCGUCCGGAACG [G6A C33U G50A G52C A65C]"
  Comparison sign: "≤"
  yeast fitness: 0.5
- Input sequence: "GUUCCGUUGGUGUAAUGGUAACGCGUCUCCAUCCUAAGGAGAAGACUGCGGGUUCGAGUCCCGUACAGAACG [C11U C31A G67A]"
  Comparison sign: "≤"
  yeast fitness: 0.5
- Input sequence: "GUUCCGUUGGCGAAAUGGUAACGCGUCUCCCUCCUAAGGAGAAGACUGCGGGUUAGAGUCCCGUACGGAACG [U13A C55A]"
  Comparison sign: "="
  yeast fitness: 0.648
- Input sequence: "GUUCCGUUGGCGUAAUGGAAACGGGUCUCCCUCCUAAGGAGAAGACUGCGGGUUCGAGUCUCGUACGGAACG [U19A C24G C61U]"
  Comparison sign: "≤"
  yeast fitness: 0.5
- Input sequence: "GUUCCGUUGGUGUAAUGGUAACGCGUCUCCCUCCUAAGGAGAAGACUGCGGGUUCGUGUCCCGUACGGUACG [C11U A57U A69U]"
  Comparison sign: "="
  yeast fitness: 0.613
- Input sequence: "GUUCCGUUGACGUAAUGGUAACGCGUCUCCCUCCUAACGAGAAGACUGCGGGUUCGAGUCCCGUACUGAACG [G10A G38C G67U]"
  Comparison sign: "≤"
  yeast fitness: 0.5
- Input sequence: "GCUCCGUUGGCGUAAUGGUAACGCGUCUCCCUCCUAAGGAGAAGACAGCGGGUUCGAGUCCCGAACGGAACG [U2C U47A U64A]"
  Comparison sign: "≤"
  yeast fitness: 0.5
